The measurements presented in this section are drawn from patent US8859578B2.

System: P. falciparum 3D7
Assay: In vitro blood stage antimalarial activity, [3H]hypoxanthine uptake
Format: cell-based
Details: Plasmodium falciparum, read-out: IC50
pIC50: −log10 of the molar value.

[
  {
    "MOLECULE": "COc1cc2c(c3cc4c(nc13)C=C[C@@]1([C@H]3CC([C@H](O)[C@@H](N)C(C)C)OCO3)C=CCOC41)[C@@H]1OCOC[C@]1(C)N2 (stereo partly shown) [Formula A]",
    "pIC50": 9.92
  }
]

###

Tested on: P. falciparum K1
Test: In vitro blood stage antimalarial activity, [3H]hypoxanthine uptake
Assay type: cell-based
Settings: Plasmodium falciparum, read-out: IC50
Method: In Vitro Blood Stage Antimalarial Efficacy Evaluation. New compounds were tested against a panel of strains of P. falciparum. Test compounds were initially dissolved in DMSO and diluted 400 fold in RPMI 1640 culture medium supplemented with 25 mM Hepes, 32 mM NaHCO3 and 10% Albumax I (Gibco, NY). […] Uptake of [^3H]hypoxanthine was measured with a Packard TopCount Liquid Scintillation Counter (Packard Instrument Co.).
pIC50: −log10 of the molar value.

[
  {
    "MOLECULE": "COc1cc2c(c3cc4c(nc13)C=C[C@@]1([C@H]3CC([C@H](O)[C@@H](N)C(C)C)OCO3)C=CCOC41)[C@@H]1OCOC[C@]1(C)N2 (some centres unmarked) [Formula A]",
    "pIC50": 9.46
  },
  {
    "MOLECULE": "CCN(CC)Cc1cc(Nc2ccnc3cc(Cl)ccc23)ccc1O [Amodiaquine]",
    "pIC50": 7.67
  }
]

###

Tested on: P. falciparum PH3
Assay: In vitro blood stage antimalarial activity, [3H]hypoxanthine uptake
Assay type: cell-based
Conditions: Plasmodium falciparum; read-out: IC50
MEASUREMENT LABEL: IC50 (nM)

[
  {
    "COMPOUND": "COc1cc2c(c3cc4c(nc13)C=C[C@@]1([C@H]3CC([C@H](O)[C@@H](N)C(C)C)OCO3)C=CCOC41)[C@@H]1OCOC[C@]1(C)N2 (stereo partly shown) [Formula A]",
    "RESULT UNITS": "nM",
    "OBS VALUE": 0.27
  }
]
